# credit: ChEMBL document CHEMBL4346675

System name: Hepatocyte growth factor activator serine protease (Homo sapiens, UniProt Q04756)
Sequence (Q04756 373-407 limits assumed): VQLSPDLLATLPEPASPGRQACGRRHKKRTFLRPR
Sequence (Q04756 408-655 limits assumed): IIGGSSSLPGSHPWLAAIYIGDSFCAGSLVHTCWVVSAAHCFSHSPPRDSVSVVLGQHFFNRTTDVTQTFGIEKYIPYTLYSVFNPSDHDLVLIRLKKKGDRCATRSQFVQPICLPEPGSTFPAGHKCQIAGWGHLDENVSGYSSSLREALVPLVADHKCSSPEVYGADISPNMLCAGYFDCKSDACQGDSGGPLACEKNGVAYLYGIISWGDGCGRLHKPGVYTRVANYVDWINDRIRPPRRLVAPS
Experiment summary: Inhibition of recombinant HGFA serine protease domain (unknown origin) preincubated for 30 mins followed by Boc-QLR-AMC substrate addition by fluorescence assay
Reported endpoint: Ki (nM)
Give bare numbers, in nM.

Below are some molecules; for each one, tell me its Ki.
1. CC(=O)N[C@@H](CCCCN)C(=O)N[C@@H](CCCNC(=N)N)C(=O)N[C@@H](CC(C)C)C(=O)N[C@@H](CCCNC(=N)N)C(=O)c1nc2ccc(C(=O)NCc3ccc(C(=O)O)cc3)cc2s1
2. CC[C@H](NC(C)=O)C(=O)N[C@@H](CCCN)C(=O)N[C@@H](CC(C)C)C(=O)N[C@@H](CCCNC(=N)N)C(=O)c1nc2ccc(C(=O)NC3CCNCC3)cc2s1

### Response
1. 3.7
2. 7.2

====

Experiment summary: Cytotoxicity against mouse DLA cells incubated for 48 hrs by MTT assay
Type: functional, cell-based
Reported endpoint: pIC50
One number for each entry, as −log10 of the molar value.

### Prompt Could you tell me which pIC50 is on file for `O=C(CN1CCN(c2nc3ccccc3s2)CC1)NNC(=O)c1ccc(Br)cc1` ?
### Response 4.65

====

Tested on: A549
Experiment summary: Cytotoxicity against human A549 cells incubated for 48 hrs by MTT assay
Type: functional, cell-based
Assay context: A549, 48 h
Reported endpoint: IC50 (nM)
Answers are plain numbers, in nM.

### Prompt Could you tell me which IC50 is on file for `COc1ccccc1C(=O)Nc1ccc2nc(SCC(=O)NCc3ccc(Cl)cc3)sc2c1` ?
### Response 2400

====

Tested on: Lewis lung carcinoma cell line
Experiment summary: Cytotoxicity against mouse LLC cells incubated for 48 hrs by MTT assay
Format: functional, cell-based
Reported endpoint: IC50 (µM)
One number for each entry, in µM.

### Prompt Could you tell me which IC50 is on file for `COc1ccccc1C(=O)Nc1ccc2nc(SCC(=O)NCc3ccc(Cl)cc3)sc2c1` ?
### Response 6.5

====

System name: Histone deacetylase 1 (Homo sapiens, UniProt Q13547)
Sequence (Q13547 whole entry): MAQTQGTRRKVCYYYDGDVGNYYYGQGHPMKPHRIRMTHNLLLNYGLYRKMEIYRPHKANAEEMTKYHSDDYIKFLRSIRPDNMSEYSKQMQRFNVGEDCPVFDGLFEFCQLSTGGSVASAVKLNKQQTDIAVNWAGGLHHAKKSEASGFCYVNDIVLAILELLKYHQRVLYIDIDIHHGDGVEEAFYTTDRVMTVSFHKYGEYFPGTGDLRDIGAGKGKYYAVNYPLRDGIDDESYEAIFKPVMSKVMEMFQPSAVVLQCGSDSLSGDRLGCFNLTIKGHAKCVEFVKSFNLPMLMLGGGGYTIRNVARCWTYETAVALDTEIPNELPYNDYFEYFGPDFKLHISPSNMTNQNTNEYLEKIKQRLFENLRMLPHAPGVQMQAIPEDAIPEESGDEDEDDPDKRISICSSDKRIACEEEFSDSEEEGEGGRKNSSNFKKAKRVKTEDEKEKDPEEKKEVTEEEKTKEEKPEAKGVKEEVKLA
Experiment summary: Inhibition of HDAC1 (unknown origin) using Ac-peptide as substrate pretreated for 15 mins followed by substrate addition and measured after 60 mins by fluorescence assay
Reported endpoint: pIC50
Numbers only, as −log10 of the molar value.

### Prompt Could you tell me which pIC50 is on file for O=C(CCCOc1ccc(N2C(=O)CSC2c2ccc(Br)s2)cc1)NO (stereo unspecified) ?
### Response 7.14
